Kindly supply the reported Activity for the substrate values for the records listed here.
Test system: Streptomyces mobaraensis (enzyme according to the invention)
Test: Hydrolysis of N-benzyloxycarbonyl-L-amino acids by the enzyme of the invention
Assay type: biochemical
Details: 10 mM Z-L-amino acid, pH 7.5, 37° C., 0.1 mM CoCl2
# number only, unit Unit/mg dropped from output

// O=C(N[C@@H](CO)C(=O)O)OCc1ccccc1 : Activity for the substrate value = 0

# Activity for the substrate of CC(C)C(NC(=O)OCc1ccccc1)C(=O)O (centres unmarked) = 43

Reported Activity for the substrate for O=C(O)CNC(=O)OCc1ccccc1 was 0

Noted for C[C@H](NC(=O)OCc1ccccc1)C(=O)O : its Activity for the substrate reads 29

Lab note: measured Activity for the substrate of NC(=O)C[C@H](NC(=O)OCc1ccccc1)C(=O)O was 12

Entry C[C@@H](O)[C@H](NC(=O)OCc1ccccc1)C(=O)O ; Activity for the substrate = 4.5

Please fill in: Activity for the substrate reported for NCCCC[C@H](NC(=O)OCc1ccccc1)C(=O)O = 38

Given item O=C(N[C@@H](Cc1ccc(O)cc1)C(=O)O)OCc1ccccc1 , the value recorded as its Activity for the substrate is 650

For reference, reported Activity for the substrate for NC(=O)CC[C@H](NC(=O)OCc1ccccc1)C(=O)O stands at 27

GET /value?item= N=C(N)NCCC[C@H](NC(=O)OCc1ccccc1)C(=O)O &field=Activity for the substrate returns 37

According to the records, this compound O=C(N[C@@H](Cc1ccccc1)C(=O)O)OCc1ccccc1 displays Activity for the substrate of 470
